experiment: Dynamic surface tension of aqueous solutions, maximum bubble pressure method; type: physicochemical; settings: negative logarithm of molar concentration giving 52.1 dyne/cm at 0.1 b/s, 25° C.
For each of the molecules below, state its pC20.
Output spec: single numeric token, no unit.

# input Need pC20, item CC(C)CC(C)OC(=O)CC(O)C(=O)OC(C)CC(C)C (racemic) [Example 9, Di(4-methyl-2-pentyl)-DL-malate]
# output 3.84

# input Would you mind doing CCCCCOC(=O)CC(O)C(=O)OCCCCC (racemic) [Example 5, Dipentyl-DL-malate] as well?
# output 3.52

# input Would you mind doing CCC(C)OC(=O)CC(O)C(=O)OC(C)CC (racemic) [Example 4, Di-sec-butyl-DL-malate] as well?
# output 2.77

# input Would you mind doing CC(C)OC(=O)C[C@H](O)C(=O)OC(C)C [Example 1, Diisopropyl-(S)-(−)-malate] as well?
# output 1.83

# input Would you mind doing CC(C)CCOC(=O)CC(O)C(=O)OCCC(C)C (racemic) [Example 6, Diisoamyl-DL-malate] as well?
# output 3.86

# input Would you mind doing O=C(CC(O)C(=O)OCc1ccccc1)OCc1ccccc1 (racemic) [Example 10, Dibenzyl-DL-malate] as well?
# output 2.23

# input Would you mind doing CC(C)COC(=O)CC(O)C(=O)OCC(C)C (racemic) [Example 3, Diisobutyl-DL-malate] as well?
# output 3.08

# input Would you mind doing CCCCCCOC(=O)CC(O)C(=O)OCCCCCC (racemic) [Example 8, Dihexyl-DL-malate] as well?
# output 3.25

# input Would you mind doing CCCCOC(=O)CC(O)C(=O)OCCCC (racemic) [Example 2, Dibutyl-DL-malate] as well?
# output 3.04

# input Would you mind doing CCC(C)COC(=O)CC(O)C(=O)OCC(C)CC (racemic) [Example 7, Di(2-methylbutyl)-DL-malate] as well?
# output 3.47

----------
assay: Dynamic surface tension of aqueous solutions, maximum bubble pressure method; type: physicochemical; details: water, 25° C., 6 b/s
For each of the molecules below, state its limiting γ (6 b/s).
Give the value in Dyne/cm but do not write Dyne/cm after it.

# input Need limiting γ (6 b/s), item CCC(C)COC(=O)CC(O)C(=O)OCC(C)CC (racemic) [Example 7, Di(2-methylbutyl)-DL-malate]
# output 41.2

# input Would you mind doing CCCCCOC(=O)CC(O)C(=O)OCCCCC (racemic) [Example 5, Dipentyl-DL-malate] as well?
# output 40.5

# input Would you mind doing CC(C)COC(=O)CC(O)C(=O)OCC(C)C (racemic) [Example 3, Diisobutyl-DL-malate] as well?
# output 33.4

# input Would you mind doing CCCCOC(=O)CC(O)C(=O)OCCCC (racemic) [Example 2, Dibutyl-DL-malate] as well?
# output 36.5

----------
assay: Dynamic surface tension of aqueous solutions, maximum bubble pressure method; format: physicochemical; conditions: water, 25° C., 20 b/s
readout: limiting γ (20 b/s) (Dyne/cm)
Give the value in Dyne/cm but do not write Dyne/cm after it.

# input Need limiting γ (20 b/s), item CCCCCCOC(=O)CC(O)C(=O)OCCCCCC (racemic) [Example 8, Dihexyl-DL-malate]
# output 71.2

# input Would you mind doing CC(C)OC(=O)C[C@H](O)C(=O)OC(C)C [Example 1, Diisopropyl-(S)-(−)-malate] as well?
# output 35.3

# input Would you mind doing CCCCOC(=O)CC(O)C(=O)OCCCC (racemic) [Example 2, Dibutyl-DL-malate] as well?
# output 38.6

# input Would you mind doing CC(C)CC(C)OC(=O)CC(O)C(=O)OC(C)CC(C)C (racemic) [Example 9, Di(4-methyl-2-pentyl)-DL-malate] as well?
# output 69.4

# input Would you mind doing O=C(CC(O)C(=O)OCc1ccccc1)OCc1ccccc1 (racemic) [Example 10, Dibenzyl-DL-malate] as well?
# output 70.0

# input Would you mind doing CCC(C)COC(=O)CC(O)C(=O)OCC(C)CC (racemic) [Example 7, Di(2-methylbutyl)-DL-malate] as well?
# output 49.7

# input Would you mind doing CC(C)COC(=O)CC(O)C(=O)OCC(C)C (racemic) [Example 3, Diisobutyl-DL-malate] as well?
# output 35.3
